FYI, the data here is from ChEMBL document CHEMBL5233289.

- Test system: MCF7
- test.method.notes: Antagonizing activity against doxorubicin-induced antitumor activity in human MCF7 cells assessed as cell viability at 20 uM incubated for 24 hrs in presence of doxorubicin by MTT assay
- Format: toxicity, cell-based
- conditions.used: mcf7, 24 h
result.type: Activity

>>> measurement("CCCCCCCCCCCC1=C(O)C(=O)c2c(nc3ccc(Br)cc3c2-c2ccc([N+](=O)[O-])cc2)C1=O")
"Non-Toxic"
>>> measurement("CCCCCCCCCCCC1=C(O)C(=O)c2c(nc3ccccc3c2-c2ccc([N+](=O)[O-])cc2)C1=O")
"Non-Toxic"
>>> measurement("CCCCCCCCCCCC1=C(O)C(=O)c2c(nc3ccccc3c2-c2ccc(Br)cc2)C1=O")
"Non-Toxic"
>>> measurement("CCCCCCCCCCCC1=C(O)C(=O)c2c(nc3ccc(OC)cc3c2-c2ccc([N+](=O)[O-])cc2)C1=O")
"Non-Toxic"
>>> measurement("CCCCCCCCCCCC1=C(O)C(=O)c2c(nc3ccccc3c2-c2ccc(F)cc2)C1=O")
"Toxic"
>>> measurement("CCCCCCCCCCCC1=C(O)C(=O)C2=C(Nc3ccccc3C2c2ccc(C)c(C)c2)C1=O (stereo unspecified)")
"Non-Toxic"
